The reported numbers originate from patent US20150203498A1.

# targetEntity: hPDE10A2 (Homo sapiens, UniProt Q9Y233)
# Construct: made in house; host or cells: Sf9 insect cells (baculovirus)
# Sequence (Q9Y233 267-1055): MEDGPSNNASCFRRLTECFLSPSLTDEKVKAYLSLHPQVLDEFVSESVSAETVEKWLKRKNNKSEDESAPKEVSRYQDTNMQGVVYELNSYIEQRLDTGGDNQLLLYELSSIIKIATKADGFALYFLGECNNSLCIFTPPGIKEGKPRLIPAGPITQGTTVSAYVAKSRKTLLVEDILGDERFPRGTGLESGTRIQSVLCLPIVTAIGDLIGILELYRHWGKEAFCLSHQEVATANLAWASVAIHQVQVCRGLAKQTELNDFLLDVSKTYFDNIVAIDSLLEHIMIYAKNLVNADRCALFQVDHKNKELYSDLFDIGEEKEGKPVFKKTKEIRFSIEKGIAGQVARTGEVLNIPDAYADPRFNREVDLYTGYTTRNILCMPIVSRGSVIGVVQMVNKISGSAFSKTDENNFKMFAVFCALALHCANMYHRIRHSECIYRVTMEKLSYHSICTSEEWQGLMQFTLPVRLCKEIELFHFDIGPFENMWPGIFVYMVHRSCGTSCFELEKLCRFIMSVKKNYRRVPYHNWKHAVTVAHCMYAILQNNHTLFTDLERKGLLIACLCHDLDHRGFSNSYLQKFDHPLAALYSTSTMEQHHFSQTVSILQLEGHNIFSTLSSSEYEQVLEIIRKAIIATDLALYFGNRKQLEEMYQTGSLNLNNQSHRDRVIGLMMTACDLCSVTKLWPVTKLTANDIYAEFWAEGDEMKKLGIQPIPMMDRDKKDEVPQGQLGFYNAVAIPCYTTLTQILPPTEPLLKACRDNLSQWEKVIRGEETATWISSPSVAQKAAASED
# assayOverview: In vitro assay PDE10A, human recombinant enzyme (SPA, 3H-cAMP)
# Type: biochemical
# measurementParameters: -log IC50 expressed in mol/L; 60 nM cAMP; read-out: PDE10A2 pIC50 - human enzyme (converted)
# Description: Human or rat recombinant PDE10A (hPDE10A2 or rPDE10A2) was expressed in Sf9 cells using a recombinant hPDE10A or rPDE10A baculovirus construct. Cells were harvested after 48 h of infection and the hPDE10A or rPDE10A protein was purified by metal chelate chromatography on Ni-sepharose 6FF. […] After sedimentation of the beads during 30 min. the radioactivity was measured in a Perkin Elmer Topcount scintillation counter and results were expressed as cpm. […]
Lab note: cut-off is 60 nM. Strictly less in IC50 is rule met. Exactly 60 nM or more is rule not met.

| compound | assignedCategory |
| --- | --- |
| Cc1nc2c(N3CCOCC3)nccn2c1-c1ccc(C2(O)CCOCC2)nc1 [Compound 4] | rule not met |
| COCC(O)c1ccc(-c2c(C)nc3c(N4CCOCC4)ccnn23)cn1 (stereo not drawn) [Compound 1] | rule not met |
| Cc1nc2c(N3CCOCC3)ccnn2c1-c1ccc(C2(O)CCOCC2)nc1 [Compound 3] | rule met |
| COCC(O)c1ccc(-c2c(C)nc3c(N4CCOCC4)ccnn23)cn1 (single isomer, unassigned) [Compound 1a] | rule not met |
| COCC(O)c1ccc(-c2c(C)nc3c(N4CCOCC4)nccn23)cn1 (stereo not drawn) [Compound 2] | rule not met |

---

# assayOverview: Pharmacokinetics of oral microdose in healthy subjects
# Type: in vivo, human
# measurementParameters: male, human, plasma, 100 ug, single oral dose of 100 μg, fasted, Median (Min-Max)
valueKind: Tmax (min)

| compound | valueKind | unitsSymbol | reportedValue |
| --- | --- | --- | --- |
| COCC(O)c1ccc(-c2c(C)nc3c(N4CCOCC4)ccnn23)cn1 (stereo not shown) [Compound 1] | Tmax | min | 38.4 |
